Below, each entry is listed with its recorded IC50.
test system: cIAP1-BIR3 (residues 253-363) (Homo sapiens (Human))
protocol summary: Fluorescence polarization (FP) based competitive binding assay, cIAP1-BIR3
particulars: Smac-2F probe, read-out: Binding Affinities IC50 (nM) cIAP1 Protein

molecule: CN[C@@H](C)C(=O)N[C@H]1CN(C(=O)NCc2cccc(CNC(=O)N3CC[C@H]4CC[C@@H](C(=O)N[C@@H]5CCCc6ccccc65)N4C(=O)[C@@H](NC(=O)[C@H](C)NC)C3)c2)CC[C@H]2CCC(C(=O)N[C@@H]3CCCc4ccccc43)N2C1=O (stereo partly shown)
IC50: < 100 nM
//
molecule: CN[C@@H](C)C(=O)N[C@H]1CN(S(=O)(=O)CC/C=C/CCS(=O)(=O)N2CC[C@H]3CC[C@@H](C(=O)NC(c4ccccc4)c4ccccc4)N3C(=O)[C@@H](NC(=O)[C@H](C)NC)C2)CC[C@H]2CCC(C(=O)NC(c3ccccc3)c3ccccc3)N2C1=O (stereo partly shown)
IC50: < 300 nM
//
molecule: CN[C@@H](C)C(=O)N[C@H]1CN(C(=O)Nc2ccc(Cc3ccc(NC(=O)N4CC[C@H]5CC[C@@H](C(=O)N[C@@H]6CCCc7ccccc76)N5C(=O)[C@@H](NC(=O)[C@H](C)NC)C4)cc3)cc2)CC[C@H]2CCC(C(=O)N[C@@H]3CCCc4ccccc43)N2C1=O (stereo partly shown)
IC50: < 100 nM
//
molecule: CN[C@@H](C)C(=O)N[C@H]1CN(C(=O)Nc2ccc(NC(=O)N3CC[C@H]4CC[C@@H](C(=O)N[C@@H]5CCCc6ccccc65)N4C(=O)[C@@H](NC(=O)[C@H](C)NC)C3)cc2)CC[C@H]2CCC(C(=O)N[C@@H]3CCCc4ccccc43)N2C1=O (stereo partly shown)
IC50: < 100 nM
//
molecule: CN[C@@H](C)C(=O)N[C@H]1CN(S(=O)(=O)CCCCCCS(=O)(=O)N2CC[C@H]3CC[C@@H](C(=O)NC(c4ccccc4)c4ccccc4)N3C(=O)[C@@H](NC(=O)[C@H](C)NC)C2)CC[C@H]2CCC(C(=O)NC(c3ccccc3)c3ccccc3)N2C1=O (stereo partly shown)
IC50: < 100 nM
//
molecule: CN[C@@H](C)C(=O)N[C@H]1CN(S(=O)(=O)CCC/C=C/CCCS(=O)(=O)N2CC[C@H]3CC[C@@H](C(=O)NC(c4ccccc4)c4ccccc4)N3C(=O)[C@@H](NC(=O)[C@H](C)NC)C2)CC[C@H]2CCC(C(=O)NC(c3ccccc3)c3ccccc3)N2C1=O (stereo partly shown)
IC50: < 100 nM
//
molecule: CN[C@@H](C)C(=O)N[C@H]1CN(C(=O)Nc2ccc(NC(=O)N3CC[C@H]4CC[C@@H](C(=O)N[C@@H]5CCC[C@H]5c5ccccc5)N4C(=O)[C@@H](NC(=O)[C@H](C)NC)C3)cc2)CC[C@H]2CC[C@@H](C(=O)N[C@@H]3CCC[C@H]3c3ccccc3)N2C1=O
IC50: < 3000 nM

###

test system: XIAP linker-BIR2-BIR3 (residues 120-356) (Homo sapiens (Human))
protocol summary: Fluorescence polarization (FP) based competitive binding assay, XIAP linker-BIR2-BIR3
particulars: FP competitive assay, Smac-1F probe; read-out: Binding Affinities IC50 (nM) XIAP Protein
The reader will find reported IC50 values listed item by item below.
quantity measured: IC50

molecule: CN[C@@H](C)C(=O)N[C@H]1CN(C(=O)NCCCCCCNC(=O)N2CC[C@H]3CC[C@@H](C(=O)N[C@@H]4CCC[C@@H]4c4ccccc4)N3C(=O)[C@@H](NC(=O)[C@H](C)NC)C2)CC[C@H]2CCC(C(=O)N[C@@H]3CCC[C@@H]3c3ccccc3)N2C1=O (stereo in doubt) [Example 44]
measured result: < 1000 nM
//
molecule: CN[C@@H](C)C(=O)N[C@H]1CN(S(=O)(=O)CCCCCCS(=O)(=O)N2CC[C@H]3CC[C@@H](C(=O)NC(c4ccccc4)c4ccccc4)N3C(=O)[C@@H](NC(=O)[C@H](C)NC)C2)CC[C@H]2CCC(C(=O)NC(c3ccccc3)c3ccccc3)N2C1=O (stereo partly shown) [Example 9]
measured result: < 10 nM
//
molecule: CN[C@@H](C)C(=O)N[C@H]1CN(C(=O)Nc2ccc(NC(=O)N3CC[C@H]4CC[C@@H](C(=O)N[C@H]5C[C@@H]5c5ccc(F)cc5)N4C(=O)[C@@H](NC(=O)[C@H](C)NC)C3)cc2)CC[C@H]2CC[C@@H](C(=O)N[C@H]3C[C@@H]3c3ccc(F)cc3)N2C1=O [Example 29]
measured result: < 1000 nM
//
molecule: CN[C@@H](C)C(=O)N[C@H]1CN(S(=O)(=O)CCC/C=C/CCCS(=O)(=O)N2CC[C@H]3CC[C@@H](C(=O)NC(c4ccccc4)c4ccccc4)N3C(=O)[C@@H](NC(=O)[C@H](C)NC)C2)CC[C@H]2CCC(C(=O)NC(c3ccccc3)c3ccccc3)N2C1=O (stereo partly shown) [Example 8]
measured result: < 10 nM
//
molecule: CN[C@@H](C)C(=O)N[C@H]1CN(C(=O)NCCCCCCNC(=O)N2CC[C@H]3CC[C@@H](C(=O)N[C@H]4CCCC[C@@H]4c4ccccc4)N3C(=O)[C@@H](NC(=O)[C@H](C)NC)C2)CC[C@H]2CCC(C(=O)N[C@H]3CCCC[C@@H]3c3ccccc3)N2C1=O (stereo in doubt) [Example 40]
measured result: < 3000 nM
//
molecule: CN[C@@H](C)C(=O)N[C@H]1CN(C(=O)Nc2ccc(Cc3ccc(NC(=O)N4CC[C@H]5CC[C@@H](C(=O)N[C@@H]6CCCc7ccccc76)N5C(=O)[C@@H](NC(=O)[C@H](C)NC)C4)cc3)cc2)CC[C@H]2CCC(C(=O)N[C@@H]3CCCc4ccccc43)N2C1=O (stereo partly shown) [Example 12]
measured result: < 10 nM
//
molecule: CN[C@@H](C)C(=O)N[C@H]1CN(C(=O)Nc2ccc(NC(=O)N3CC[C@H]4CC[C@@H](C(=O)N[C@H]5CCC[C@@H]5c5ccccc5)N4C(=O)[C@@H](NC(=O)[C@H](C)NC)C3)cc2)CC[C@H]2CC[C@@H](C(=O)N[C@H]3CCC[C@@H]3c3ccccc3)N2C1=O [Example 33]
measured result: < 3000 nM

###

test system: cIAP1-BIR3 (residues 253-363) (Homo sapiens (Human), UniProt Q13490)
protocol summary: Fluorescence polarization (FP) based competitive binding assay, cIAP1-BIR3
particulars: Smac-2F probe, read-out: Binding Affinities IC50 (nM) cIAP1 Protein
quantity measured: IC50

compound: CN[C@@H](C)C(=O)N[C@H]1CN(C(=O)NCCCCCCNC(=O)N2CC[C@H]3CC[C@@H](C(=O)NC(c4ccccc4)c4ccccc4)N3C(=O)[C@@H](NC(=O)[C@H](C)NC)C2)CC[C@H]2CCC(C(=O)NC(c3ccccc3)c3ccccc3)N2C1=O (some centres unmarked)
quantity measured: IC50
measured result: < 300 nM
//
compound: CN[C@@H](C)C(=O)N[C@H]1CN(C(=O)Nc2ccc(NC(=O)N3CC[C@H]4CC[C@@H](C(=O)N[C@H]5CCC[C@@H]5c5ccccc5)N4C(=O)[C@@H](NC(=O)[C@H](C)NC)C3)cc2)CC[C@H]2CC[C@@H](C(=O)N[C@H]3CCC[C@@H]3c3ccccc3)N2C1=O
quantity measured: IC50
measured result: < 3000 nM
//
compound: CN[C@@H](C)C(=O)N[C@H]1CN(C(=O)NCCCCCCCCNC(=O)N2CC[C@H]3CC[C@@H](C(=O)N[C@@H]4CCCc5ccccc54)N3C(=O)[C@@H](NC(=O)[C@H](C)NC)C2)CC[C@H]2CCC(C(=O)N[C@@H]3CCCc4ccccc43)N2C1=O (some centres unmarked)
quantity measured: IC50
measured result: < 100 nM
//
compound: CN[C@@H](C)C(=O)N[C@H]1CN(C(=O)NCCCCCCNC(=O)N2CC[C@H]3CC[C@@H](C(=O)N[C@H]4CCCC[C@@H]4c4ccccc4)N3C(=O)[C@@H](NC(=O)[C@H](C)NC)C2)CC[C@H]2CCC(C(=O)N[C@H]3CCCC[C@@H]3c3ccccc3)N2C1=O (stereo in doubt)
quantity measured: IC50
measured result: < 3000 nM
//
compound: CN[C@@H](C)C(=O)N[C@H]1CN(C(=O)NCCCCCCNC(=O)N2CC[C@H]3CC[C@@H](C(=O)N[C@@H]4CCC[C@H]4c4ccccc4)N3C(=O)[C@@H](NC(=O)[C@H](C)NC)C2)CC[C@H]2CCC(C(=O)N[C@@H]3CCC[C@H]3c3ccccc3)N2C1=O (stereo in doubt)
quantity measured: IC50
measured result: < 3000 nM

###

IC50 reference
test system: cIAP-2 BIR3 (residues 238-349) (Homo sapiens (Human), UniProt Q13489)
protocol summary: Fluorescence polarization (FP) based competitive binding assay, cIAP-2 BIR3
particulars: FP competitive assay, Smac-2F probe; read-out: Binding Affinities IC50 (nM) cIAP2 Protein
quantity measured: IC50

molecule: CN[C@@H](C)C(=O)N[C@H]1CN(C(=O)NCCCCCCCCNC(=O)N2CC[C@H]3CC[C@@H](C(=O)N[C@@H]4CCCc5ccccc54)N3C(=O)[C@@H](NC(=O)[C@H](C)NC)C2)CC[C@H]2CCC(C(=O)N[C@@H]3CCCc4ccccc43)N2C1=O (stereo partly shown)
test system: cIAP-2 BIR3 (residues 238-349) (Homo sapiens (Human), UniProt Q13489)
measured result: < 100 nM

molecule: CN[C@@H](C)C(=O)N[C@H]1CN(S(=O)(=O)CCCCCCCCS(=O)(=O)N2CC[C@H]3CC[C@@H](C(=O)NC(c4ccccc4)c4ccccc4)N3C(=O)[C@@H](NC(=O)[C@H](C)NC)C2)CC[C@H]2CCC(C(=O)NC(c3ccccc3)c3ccccc3)N2C1=O (stereo partly shown)
test system: cIAP-2 BIR3 (residues 238-349) (Homo sapiens (Human), UniProt Q13489)
measured result: < 100 nM

molecule: CN[C@@H](C)C(=O)N[C@H]1CN(C(=O)NCCCCCCNC(=O)N2CC[C@H]3CC[C@@H](C(=O)N[C@@H]4CCC[C@@H]4c4ccccc4)N3C(=O)[C@@H](NC(=O)[C@H](C)NC)C2)CC[C@H]2CCC(C(=O)N[C@@H]3CCC[C@@H]3c3ccccc3)N2C1=O (stereo in doubt)
test system: cIAP-2 BIR3 (residues 238-349) (Homo sapiens (Human), UniProt Q13489)
measured result: < 3000 nM

molecule: CN[C@@H](C)C(=O)N[C@H]1CN(C(=O)Nc2ccc(NC(=O)N3CC[C@H]4CC[C@@H](C(=O)N[C@@H]5CCC[C@@H]5c5ccccc5)N4C(=O)[C@@H](NC(=O)[C@H](C)NC)C3)cc2)CC[C@H]2CC[C@@H](C(=O)N[C@@H]3CCC[C@@H]3c3ccccc3)N2C1=O
test system: cIAP-2 BIR3 (residues 238-349) (Homo sapiens (Human), UniProt Q13489)
measured result: < 1000 nM
